# Species: Rattus norvegicus
# Assay: Open TG-GATES - Regimen: Daily Repeat
# Type: toxicity, organism-based, Sprague-Dawley
# Set-up: regimen Daily Repeat, gender Male, age 6 weeks
# Details: in vivo, po, 300 mg/kg, […], tissue Plasma, route gavage, dose level Middle, time 14 day
Reported Property: LDH (IU/L)

>>> df
                                   compound  reported_property  quantitative_result
0   CC(C)(S)[C@@H](N)C(=O)O [PENICILLAMINE]                LDH                100.2
1                   O=C(O)c1cccnc1 [NIACIN]                LDH                166.4
2  O=C(N[C@H](CO)[C@H](O)c1ccc([N+](=O)[O-])cc1)C(Cl)Cl [CHLORAMPHENICOL]                LDH                 66.8
3  CCN1CCCC1CNC(=O)c1cc(S(N)(=O)=O)ccc1OC (centres undefined) [SULPIRIDE]                LDH                 50.6
